biological target: Calcium-dependent protein kinase 4 (Plasmodium falciparum (isolate 3D7)) (UniProt Q8IBS5); assay: PfCDPK4 kinase inhibitors, biochemical, TCAMS library (AID 1159588); details: recombinant PfCDPK4, Kinase-Glo ATP depletion luminescence
Sequence (Q8IBS5 whole entry, looked up): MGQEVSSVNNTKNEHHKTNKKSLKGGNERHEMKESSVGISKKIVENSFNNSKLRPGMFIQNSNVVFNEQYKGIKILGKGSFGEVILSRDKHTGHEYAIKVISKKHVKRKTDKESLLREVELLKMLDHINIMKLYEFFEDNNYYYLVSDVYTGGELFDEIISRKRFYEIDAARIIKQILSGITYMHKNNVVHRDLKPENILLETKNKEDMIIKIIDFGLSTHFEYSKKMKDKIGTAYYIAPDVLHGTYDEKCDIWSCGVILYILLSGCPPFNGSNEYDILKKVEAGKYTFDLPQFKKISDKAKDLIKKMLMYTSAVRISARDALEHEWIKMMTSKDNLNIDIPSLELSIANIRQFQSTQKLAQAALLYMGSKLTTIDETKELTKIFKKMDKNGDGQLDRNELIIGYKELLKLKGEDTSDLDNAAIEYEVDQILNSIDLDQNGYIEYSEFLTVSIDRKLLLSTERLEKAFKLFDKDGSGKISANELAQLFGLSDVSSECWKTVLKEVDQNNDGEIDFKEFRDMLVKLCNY
Results with a measured potency or affinity are listed apart. Calls of active or inactive are those of the source. No cut-off is given here; in the data, nearly all actives have IC50 up to about 0.91 µM.
Test readout: outcome

// below: answered compounds
compound=c1cc(CNCCc2ccncc2)cc(-c2cccc(-c3nc4ccccc4[nH]3)c2)c1 experimental_target="Calcium-dependent protein kinase 4 (Plasmodium falciparum (isolate 3D7)) (UniProt Q8IBS5)" test_readout=outcome value=inactive
compound=O=C(Nc1cccc(C(F)(F)F)c1)NC1CCN(c2ccnc3cc(Cl)ccc23)CC1 experimental_target="Calcium-dependent protein kinase 4 (Plasmodium falciparum (isolate 3D7)) (UniProt Q8IBS5)" test_readout=outcome value=inactive
compound="CCc1ccc(CNCC(CCNc2cc(=O)c3ccccc3[nH]2)NCc2cc(Br)cc(Br)c2)o1 (stereo not drawn)" experimental_target="Calcium-dependent protein kinase 4 (Plasmodium falciparum (isolate 3D7)) (UniProt Q8IBS5)" test_readout=outcome value=inactive
compound=CN(c1ccc(C(=O)N[C@@H](CCC(=O)O)C(=O)O)cc1)S(=O)(=O)c1ccc2nc(N)[nH]c(=O)c2c1 experimental_target="Calcium-dependent protein kinase 4 (Plasmodium falciparum (isolate 3D7)) (UniProt Q8IBS5)" test_readout=outcome value=inactive
compound=Oc1c(CN2CCC(Cc3ccccc3)CC2)cc(Cl)c2cccnc12 experimental_target="Calcium-dependent protein kinase 4 (Plasmodium falciparum (isolate 3D7)) (UniProt Q8IBS5)" test_readout=outcome value=inactive
compound=NC(=O)c1ccc(C(=O)Nc2cccc(-c3cccc(-c4nc5ccc(C(F)(F)F)cc5[nH]4)c3)c2)cc1 experimental_target="Calcium-dependent protein kinase 4 (Plasmodium falciparum (isolate 3D7)) (UniProt Q8IBS5)" test_readout=outcome value=inactive
compound=c1ccc(CNCc2cccc(-c3cccc(-c4nc5ccccc5[nH]4)c3)c2)cc1 experimental_target="Calcium-dependent protein kinase 4 (Plasmodium falciparum (isolate 3D7)) (UniProt Q8IBS5)" test_readout=outcome value=inactive
compound=COc1ccc(O)cc1Cc1cnc2nc(N)nc(N)c2c1C experimental_target="Calcium-dependent protein kinase 4 (Plasmodium falciparum (isolate 3D7)) (UniProt Q8IBS5)" test_readout=outcome value=inactive

Can you share its outcome? I mean this compound: `CO/C(=C\C=C\c1cc2cc(Cl)c(Cl)cc2[nH]1)C(=O)NC1CCN(CCNc2ccccc2)CC1`
inactive

Can you share its outcome? I mean this compound: C[C@@H]1CN(C(c2cccc(O)c2)c2cccc(C(=O)N(C)c3cccc(F)c3)c2)[C@@H](C)CN1C(c1cccc(O)c1)c1cccc(C(=O)N(C)c2cccc(F)c2)c1 (stereo partly drawn)
inactive

Can you share its outcome? I mean this compound: CCC(C)NC(=O)Nc1ccc(-c2cccc(-c3nc4ccc(C(F)(F)F)cc4[nH]3)c2)cc1 (stereo not drawn)
inactive

Can you share its outcome? I mean this compound: `Cc1cc(N[C@@H](Cc2ccccc2)C(=O)NCc2cccs2)nc(NCCc2ccc(F)cc2)n1`
inactive

----------
experiment: inhibition of 3D7 malaria parasite growth – strain 3D7 (AID 2306);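 note: 0% = DMSO wells and 100% = chloroquine plus artemisinin control wells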; conditions: P. falciparum 3D7 erythrocytic growth, LDH absorbance, 72 h; at 2 µM; stronger effect = higher value
Assign growth inhibition to each entry below.
Unit % implied. Number only.

Can you share its growth inhibition? I mean this compound: CCCC(CNCc1cccc(OC(F)(F)F)c1)CNc1cc(=O)c2ccccc2[nH]1 (stereo unspecified)
101

Can you share its growth inhibition? I mean this compound: `COc1ccc(-c2nc(NC(=O)CSc3ccc([N+](=O)[O-])cc3)sc2C)cc1`
101

Can you share its growth inhibition? I mean this compound: `Cn1c(NC2CCN(CC3CCN(C(=O)/C=C/c4ccc(Cl)c(Cl)c4)CC3)CC2)nc2ccccc21`
101

Can you share its growth inhibition? I mean this compound: `COc1cc2ncnc(NCCc3ccccc3Cl)c2cc1OC`
88

Can you share its growth inhibition? I mean this compound: `CC[C@H]1CN(CCCn2c3ccccc3c3ccccc32)[C@@H](CC)CN1`
89

Can you share its growth inhibition? I mean this compound: `CCOc1cc(C(=O)NCCN2CCCCC2)ccc1-c1nc2ccc(Cl)cc2[nH]1`
99

Can you share its growth inhibition? I mean this compound: `N#Cc1ccc(CN2CCCN(Cc3cccc(NC(=O)c4ccc(Cl)c(Cl)c4)c3)CC2)cc1`
95

Can you share its growth inhibition? I mean this compound: `CCc1cn2c3c(cc(C(=O)N[C@@H](Cc4ccccc4)[C@H](O)CNC4CCCCC4)cc13)N(CC)S(=O)(=O)CC2`
98

Can you share its growth inhibition? I mean this compound: `CC(C)Cn1c(Sc2ccc(C#N)c([N+](=O)[O-])c2)nnc1-c1ccccc1Cl`
93

Can you share its growth inhibition? I mean this compound: `CN=C(Nc1c(Cl)cccc1Cl)N(C)C`
98

Can you share its growth inhibition? I mean this compound: `O=C(/C=C/c1ccc(Cl)c(Cl)c1)NCCCCCN1CCCN(C(=O)Nc2ccc(F)c(Cl)c2)CC1`
95

Can you share its growth inhibition? I mean this compound: `COc1ccc2nccc([C@@H](O)CN3CCC(NC(=O)/C=C/c4cccc(NC(C)=O)c4)CC3)c2c1`
90

Can you share its growth inhibition? I mean this compound: O=C(NC1CCN(Cc2ccccc2O)C1)c1ccc(-c2ccccc2)cc1 (stereo unspecified)
99

Can you share its growth inhibition? I mean this compound: `O=C(Nc1cccc(-c2ccc(CN3CCCC3)cc2)c1)c1ccc(Cl)cc1`
100

Can you share its growth inhibition? I mean this compound: CCN1CCCC(Nc2ccnc3cc4ccccc4cc23)C1 (stereo unspecified)
101

Can you share its growth inhibition? I mean this compound: `Clc1ccc(Nc2nc(NCc3ccccc3)nc(N/N=C/c3ccccn3)n2)cc1`
99

Can you share its growth inhibition? I mean this compound: `CC(C)NCc1cccc(-c2ccc(-c3nc4ccc(C(F)(F)F)cc4[nH]3)cc2)c1`
99

Can you share its growth inhibition? I mean this compound: `O=C(Nc1cncc(NC(=O)c2ccc(Cl)c(Cl)c2)c1)c1ccc(Cl)c(Cl)c1`
101

Can you share its growth inhibition? I mean this compound: `Cc1nc2nc(N)nc(N)c2c(C)c1Cc1cccc(C(N)=O)c1`
91

Can you share its growth inhibition? I mean this compound: `COc1ccc2c(NN=Cc3cccc(F)c3)cc(C)nc2c1`
101

Can you share its growth inhibition? I mean this compound: COc1cc2c(cc1OC)CC(NCCCCCCNCCc1ccc(Cl)cc1)CC2 (stereo unspecified)
98

----------
experiment: human hepatoma cell viability loss – ATP luminescence, cytotoxicity control for P. falciparum antimalarial project, primary screen (AID 2303); conditions: HepG2 viability, 24-48 h, at 10 µM, stronger effect = higher value;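 note: 0% = DMSO wells and 100% = digitonin-killed cells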
Labelling field: enter T if recorded inhibition is less than 10%. Enter F if it equals or exceeds that cut-off.

Quick check: does Cc1cc(CN2CCC(N3CC(c4ccccc4)(c4ccccc4)OCC3=O)C2)ccc1O (stereo not drawn) have inhibition under 10%?
T

Quick check: does `CN(C)CCCOc1cccc(CCNCc2cccc(Oc3ccc(Cl)cc3)c2)c1` have inhibition under 10%?
F

Quick check: does `CCC(CC)N1C(=O)C(c2ccccc2)(c2ccccc2)N=C1N` have inhibition under 10%?
F

Quick check: does `Cc1cc(Nc2ccc(O)cc2)nc2cc(O)ccc12` have inhibition under 10%?
T

Quick check: does `O=C(c1ccc2ccccc2n1)N1CCCc2cc(Br)ccc21` have inhibition under 10%?
F

Quick check: does CCCCCCCC1CC(CC(=O)Nc2ccnc3ccc(OC)cc23)CN1C(=O)OC(C)(C)C (stereo not drawn) have inhibition under 10%?
T

Quick check: does `Cc1cccc2[nH]c(-c3cccc(-c4ccc(NC(=O)c5cnn6cccnc56)cc4)c3)nc12` have inhibition under 10%?
F

Quick check: does `c1ccc2[nH]c(-c3ccc(-c4ccc(CNC5CC5)cc4)s3)nc2c1` have inhibition under 10%?
F

Quick check: does `O=C(Nc1ccc(Cn2ncc(N3CCCNCC3)c(Cl)c2=O)cc1)Nc1ccc(SC(F)(F)F)cc1` have inhibition under 10%?
T

Quick check: does `O=c1c2c([nH]c3cc(Cl)ccc13)CCCC2` have inhibition under 10%?
F

Quick check: does `Cc1cccc2[nH]c(-c3cccc(-c4cccc(NC(=O)c5cnn6cccnc56)c4)c3)nc12` have inhibition under 10%?
F

Quick check: does `O=C(C=Cc1ccc(Cl)c(Cl)c1)NCCCCCN1CCC(CCNC(=O)c2cccc3ccccc23)CC1` have inhibition under 10%?
F

Quick check: does `Fc1ccc(C=NNc2nc3ccccc3[nH]2)cc1` have inhibition under 10%?
T

Quick check: does Cc1ccc(C(=O)Nc2ccc(OC3CCN(CCC(C)C)C3)c(Cl)c2)cc1 (stereo not drawn) have inhibition under 10%?
F

Quick check: does COc1ccc2nccc(NC(=O)C3CCC(NCc4cnc(SC)c([N+](=O)[O-])c4)CC3)c2n1 (stereo not drawn) have inhibition under 10%?
T

Quick check: does `C[C@@H]1CCC[C@H](C)N1C[C@@H](O)CNS(=O)(=O)c1cccc(C(F)(F)F)c1` have inhibition under 10%?
T

Quick check: does CN1CCCC1CCNCc1cccc(-c2cnc(N3CCCC(C)(C)C3)nc2)c1 (stereo not drawn) have inhibition under 10%?
F

Quick check: does COc1ccc(-c2nc3c(N)nc(N)nc3nc2-c2ccccc2Cl)cc1 (tested in a mixture with another compound) have inhibition under 10%?
F

Quick check: does `O=C(Nc1nc2cc(S(=O)(=O)NCCc3ccc(F)cc3)ccc2n1CCCn1ccnc1)c1ccc(Cl)cc1` have inhibition under 10%?
F

Quick check: does `Cc1cccc(C(=O)Nc2ccnc(N3CCC(N(C)Cc4cccc(O)c4)CC3)c2)c1` have inhibition under 10%?
T

Quick check: does `N#Cc1ccc(N(CCNS(=O)(=O)c2cc(Br)c(Cl)s2)Cc2ccccc2C(F)(F)F)cc1C(F)(F)F` have inhibition under 10%?
T

Quick check: does `CC(C)C[C@H]1C(=O)N[C@H](C2Cc3ccccc3C2)C(=O)N1[C@@H](C(=O)Nc1ccccc1OCc1ccccc1)c1ccc(F)cc1F` have inhibition under 10%?
F

Quick check: does `CCCCCCCN1CC[C@@H](C[C@H](N)Cc2ccnc3ccc(OC)cc23)[C@@H](CC)C1` have inhibition under 10%?
F

Quick check: does CC(C)CC(NC(=O)c1ccc(F)cc1)C(=O)N[C@H](/C=N/N1CCNC1=O)CC(C)C (stereo partly drawn) have inhibition under 10%?
T

Quick check: does `Cn1nccc1C(=O)NCCNCc1ccc(-c2ccc(-c3nc4ccccc4[nH]3)s2)cc1` have inhibition under 10%?
F

Quick check: does CCC[C@@H]([C@@H](CC1CCC(C)CC1)C(=O)N[C@@H](CO)C(=O)Nc1nccs1)N(O)C=O (stereo partly drawn) have inhibition under 10%?
T

Quick check: does `O=C(NC1CC1)c1cnc(N2CCN(Cc3c(F)cccc3Cl)CC2)c(Cl)c1` have inhibition under 10%?
T

Quick check: does COc1cccc(-c2csc(C(=O)NCC3CCN(Cc4ccc(C(C)C)cc4)C3)c2)c1 (stereo not drawn) have inhibition under 10%?
F

Quick check: does `O=C(/C=C/c1ccc(C(F)(F)F)cc1)NCCCCCN1CCN(C(=O)Nc2ccc(F)c(Cl)c2)CC1` have inhibition under 10%?
F

Quick check: does `CN1CCC(C(=O)N(Cc2ccc(-c3ccc(CNCCc4ccccc4)cn3)cc2)Cc2cccc(F)c2)CC1` have inhibition under 10%?
F

Quick check: does COc1cc(C(=O)N2CCOC(CCN3CCC(c4ccc(Cl)cc4)CC3)(c3ccc(Cl)c(Cl)c3)C2)cc(OC)c1OC (stereo not drawn) have inhibition under 10%?
F

Quick check: does `CC(=O)c1c[nH]c(C(=O)Nc2ccc(-c3cn4ccccc4n3)cc2)c1` have inhibition under 10%?
F

Quick check: does `CS(=O)(=O)CCNCc1ccc(-c2ccc3c(Nc4ccc(Cl)cc4F)ccnc3c2)o1` have inhibition under 10%?
T

Quick check: does `CS(=O)(=O)NCCCNCc1ccc(-c2cccc(-c3nc4ccc(F)cc4[nH]3)c2)cc1` have inhibition under 10%?
F

Quick check: does `O=C(Nc1cccc(-c2cccc(CN3CCCC3)c2)c1)c1ccc(Cl)cc1` have inhibition under 10%?
F

Quick check: does `Cc1ccc(Nc2nc(N)c3ccccc3n2)cc1` have inhibition under 10%?
T

Quick check: does `COc1ccc(C(=O)N2CCc3cc4nccc(N5CCN6CCC[C@H]6C5)c4cc32)cc1` have inhibition under 10%?
T
